Hey, just so you know, these numbers are from patent US9718790B2.

TARGET_OR_SYSTEM: human P2X3 receptor (Homo sapiens (Human), UniProt P56373)
Sequence (P56373 whole entry): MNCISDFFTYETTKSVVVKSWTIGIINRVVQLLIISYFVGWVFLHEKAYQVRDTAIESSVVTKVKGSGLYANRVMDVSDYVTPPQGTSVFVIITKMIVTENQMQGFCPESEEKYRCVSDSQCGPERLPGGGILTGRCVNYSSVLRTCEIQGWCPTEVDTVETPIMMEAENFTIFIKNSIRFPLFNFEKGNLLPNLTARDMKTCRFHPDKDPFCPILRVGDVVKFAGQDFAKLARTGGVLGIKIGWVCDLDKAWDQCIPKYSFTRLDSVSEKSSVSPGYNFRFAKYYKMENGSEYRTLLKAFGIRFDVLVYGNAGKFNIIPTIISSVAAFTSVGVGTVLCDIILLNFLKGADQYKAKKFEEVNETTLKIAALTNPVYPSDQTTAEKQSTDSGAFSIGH
EXPERIMENTAL_PROTOCOL: Evaluation of human P2X3 receptor inhibitory activity (Fluo-3 calcium fluorescence, FDSS 3000, ATP stimulation);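 further: stimulus was 50 nM ATP with fluorescence followed for 3 min, and the response per well was peak post-ATP fluorescence divided by the reading at measurement start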
Assay type: cell-based
MEASUREMENT_PARAMETERS: C6BU-1 cells stably expressing human P2X3 receptor, Fluo-3 fluorescence, FDSS 3000
MEASURED_PROPERTY: IC50 (nM)
Hi! Could you send only the number? It should be in nM, unit omitted.

Please fill in: IC50 reported for CCc1oc2ccc(/N=c3\[nH]c(=O)n(C[C@@H](C)NC(C)=O)c(=O)n3Cc3ccc(Cl)cc3)cc2c1C = 14

Please fill in: IC50 reported for CCC(CC)Oc1ccc(/N=c2\[nH]c(=O)n(C[C@H](C)C(=O)O)c(=O)n2Cc2ccc(C)cc2)cc1 = 37

Please fill in: IC50 reported for CCC[C@H](C)Oc1ccc(/N=c2\[nH]c(=O)n(CCC(=O)O)c(=O)n2Cc2ccc(C)cc2)cc1 = 93

Please fill in: IC50 reported for COc1ccc(Oc2ccc(/N=c3\[nH]c(=O)n(CCO)c(=O)n3Cc3ccc(Cl)cc3)cc2)cn1 = 11

Please fill in: IC50 reported for CNC(=O)Cn1c(=O)[nH]/c(=N\c2ccc3nc(C)sc3c2)n(Cc2ccc(Cl)cc2)c1=O = 5

Please fill in: IC50 reported for CC[C@H](C)Oc1ccc(/N=c2\[nH]c(=O)n(C[C@H](C)C(=O)OC)c(=O)n2Cc2ccc(C)cc2)cc1Cl = 17

Please fill in: IC50 reported for C[C@@H](C(=O)O)[C@H](C)n1c(=O)[nH]/c(=N\c2ccc3cc(Br)ccc3c2)n(Cc2ccc(Cl)cc2)c1=O = 32
